molecular target: recombinant human ALK5 (TGF-βR1) protein (Homo sapiens); experiment: Biochemical ALK5 (TGF-βR1) assay to measure pKi (LANCE Ultra ULight kinase assay); conditions: apparent pKi, converted from pIC50 by Cheng-Prusoff
pKi: −log10 of the molar value.
For each record, write down the corresponding pKi.

[[record]]
line_notation = "Cc1cccc(-c2nccc(Nc3ccnc(Nc4nc(C(=O)NCC5(CO)CNC5)cs4)n3)n2)n1"
experimental_system = "recombinant human ALK5 (TGF-βR1) protein (Homo sapiens)"
result = "9.50 to 10.40"

[[record]]
line_notation = "CNC1CCN(c2ccc(Nc3nccc(Nc4ccnc(-c5ccccc5F)n4)n3)cc2)CC1"
experimental_system = "recombinant human ALK5 (TGF-βR1) protein (Homo sapiens)"
result = "8.50 to 9.40"

[[record]]
line_notation = "Cc1cccc(-c2nccc(Nc3ccnc(Nc4ccc(N5CCC(NCC(C)C)CC5)cc4)n3)n2)n1"
experimental_system = "recombinant human ALK5 (TGF-βR1) protein (Homo sapiens)"
result = "9.50 to 10.40"

[[record]]
line_notation = "Cc1cccc(-c2nccc(Nc3ccnc(Nc4ccc(NC(=O)N5CCN(C(C)C)CC5)cc4)n3)n2)n1"
experimental_system = "recombinant human ALK5 (TGF-βR1) protein (Homo sapiens)"
result = "9.50 to 10.40"

[[record]]
line_notation = "Cc1cccc(-c2nccc(Nc3ccnc(Nc4ccc(S(=O)(=O)NCCN)cc4)n3)n2)n1"
experimental_system = "recombinant human ALK5 (TGF-βR1) protein (Homo sapiens)"
result = "≥ 10.50"


I would be grateful if you could provide pKi for each of the following entries.
1. Cc1cccc(-c2nccc(Nc3ccnc(Nc4ccc(F)c(CN5C6CCC5CNC6)c4)n3)n2)n1
2. Cc1cccc(-c2nccc(Nc3ccnc(Nc4nc(C(=O)OCCN5CCNCC5)cs4)n3)n2)n1
3. Cc1cccc(-c2nccc(Nc3ccnc(Nc4ncc(C5=CCNCC5)s4)n3)n2)n1
4. Cc1cccc(-c2nccc(Nc3ccnc(Nc4nc(C(=O)OC[C@@H]5CCCNC5)cs4)n3)n2)n1
5. Fc1ccc(Cl)cc1-c1nccc(Nc2ccnc(Nc3ccc(N4CCNCC4)cc3)n2)n1
6. COCCc1ccc(Nc2nccc(Nc3ccnc(-c4cccc(C)n4)n3)n2)cc1

Marked response:
9.50 to 10.40
8.50 to 9.40
8.50 to 9.40
8.50 to 9.40
9.50 to 10.40
8.50 to 9.40

I would be grateful if you could provide pKi for each of the following entries.
1. Cc1cccc(-c2nccc(Nc3ccnc(Nc4ccc(NC(=O)N5CCN(C)CC5)cc4)n3)n2)n1
2. Fc1ccc(Cl)cc1-c1nccc(Nc2ccnc(Nc3ccc(NCCN4CCOCC4)cc3)n2)n1

Marked response:
9.50 to 10.40
8.50 to 9.40

I would be grateful if you could provide pKi for each of the following entries.
1. Cc1cccc(-c2nccc(Nc3ccnc(Nc4ccc(CN5CCN[C@@H](CO)C5)cc4)n3)n2)n1
2. Cc1cccc(-c2nccc(Nc3ccnc(Nc4csc(C(=O)NC5CNC5)c4)n3)n2)n1
3. COC(=O)Cc1ccc(Nc2nccc(Nc3nc(-c4cccc(C)n4)nn4cccc34)n2)cc1

Marked response:
1: 9.50 to 10.40; 2: ≥ 10.50; 3: 8.50 to 9.40

====

For each record, write down the corresponding Ki.
Molecular target: recombinant human ALK5 (TGF-βR1) protein (Homo sapiens, UniProt P36897)
Sequence (P36897 34-503): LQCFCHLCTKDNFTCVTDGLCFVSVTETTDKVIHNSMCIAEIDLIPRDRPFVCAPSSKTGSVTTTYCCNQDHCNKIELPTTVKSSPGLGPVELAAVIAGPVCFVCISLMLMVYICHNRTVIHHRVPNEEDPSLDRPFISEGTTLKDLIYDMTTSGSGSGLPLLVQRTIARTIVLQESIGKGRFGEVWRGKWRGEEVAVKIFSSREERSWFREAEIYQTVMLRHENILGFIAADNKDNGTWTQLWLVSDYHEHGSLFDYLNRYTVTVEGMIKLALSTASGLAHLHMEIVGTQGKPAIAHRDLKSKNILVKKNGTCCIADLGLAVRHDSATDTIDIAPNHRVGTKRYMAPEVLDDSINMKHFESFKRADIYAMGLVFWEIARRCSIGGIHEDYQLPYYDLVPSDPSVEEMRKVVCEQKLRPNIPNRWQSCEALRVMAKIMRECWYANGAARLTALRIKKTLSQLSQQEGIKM
Assay: Biochemical ALK5 (TGF-βR1) assay to measure pKi (LANCE Ultra ULight kinase assay)
Conditions: apparent pKi, converted from pIC50 by Cheng-Prusoff
Protocol: The assays were performed in a 384-well plate (24 columns×16 wells/rows). An Echo®550 Liquid Handler (Labcyte) was used to prepare various intermediate concentrations of compounds of the present disclosure in 100% DMSO. […] For dose-response analyses, percent inhibition versus compound concentrations were plotted, and pIC50 values were determined from a 4-parameter robust fit model with GraphPad Prism V5 Software (GraphPad Software, Inc., La Jolla, CA). […]

I would be grateful if you could provide Ki for each of the following entries.
1. Cc1cccc(-c2nccc(Nc3ccnc(Nc4csc(C(=O)O[C@H]5C[C@H](N)C5)c4)n3)n2)n1
2. Cc1cccc(-c2nccc(Nc3ccnc(Nc4ccc(CN5CC(C)(N(C)C)C5)cc4)n3)n2)n1
3. Cc1cccc(-c2nccc(Nc3ccnc(Nc4ccc(C(=O)OC[C@@H]5CCCNC5)nc4)n3)n2)n1
4. Cc1cccc(-c2nccc(Nc3ccnc(Nc4cccc(C(=O)O[C@H]5CCN(C)C5)c4)n3)n2)n1
5. Cc1cccc(-c2nccc(Nc3ccnc(Nc4cccc(C(=O)N5CCNCC5)c4)n3)n2)n1
6. Cc1cccc(-c2nccc(Nc3ccnc(Nc4ccc(N5CCN(CC6CCC(=O)O6)CC5)cc4)n3)n2)n1 (stereo not drawn)
7. Cc1cccc(-c2nccc(Nc3ccnc(Nc4ccc(CN5CC[C@H](O)C5)cc4)n3)n2)n1
8. Cc1cccc(-c2nccc(Nc3ccnc(Nc4ccc(C(=O)OCC5CNC5)cc4)n3)n2)n1

Marked response:
1. 0.0398 to 0.316 nM
2. 0.0398 to 0.316 nM
3. 0.0398 to 0.316 nM
4. 0.398 to 3.16 nM
5. 0.398 to 3.16 nM
6. 0.0398 to 0.316 nM
7. 0.0398 to 0.316 nM
8. 0.0398 to 0.316 nM

I would be grateful if you could provide Ki for each of the following entries.
1. CCOC(=O)Cc1ccc(Nc2nccc(Nc3ccnc(-c4cccc(C)n4)n3)n2)cc1
2. Cc1cccc(-c2nccc(Nc3ccnc(Nc4cc(C(=O)O[C@H]5CCN(C)C5)cs4)n3)n2)n1
3. Cc1cccc(-c2nccc(Nc3ccnc(Nc4csc(C(=O)N5CCNCC5)c4)n3)n2)n1
4. Cc1cccc(-c2nccc(Nc3ccnc(Nc4cc(C(=O)OCCN5CCNCC5)ccn4)n3)n2)n1
5. Cc1cccc(-c2nccc(Nc3ccnc(Nc4cnc(N5CCNCC5)nc4)n3)n2)n1

Marked response:
1: 0.398 to 3.16 nM; 2: 0.0398 to 0.316 nM; 3: ≤ 0.0316 nM; 4: 3.98 to 31.6 nM; 5: 0.398 to 3.16 nM

I would be grateful if you could provide Ki for each of the following entries.
1. Cc1cccc(-c2nccc(Nc3ccnc(Nc4nc(C(=O)OCC5CCNCC5)cs4)n3)n2)n1
2. Cc1cccc(-c2nccc(Nc3ccnc(Nc4cccc(NCC5CNC5)c4)n3)n2)n1
3. Cc1cccc(-c2nccc(Nc3ccnc(Nc4cnn(CCN5CCOCC5)c4)n3)n2)n1
4. Cc1cccc(-c2nccc(Nc3ccnc(Nc4cccc(NC(=O)C5CNC5)c4)n3)n2)n1
5. Cc1cccc(-c2nccc(Nc3ccnc(Nc4nc(C(=O)N[C@@H]5CCNC5)cs4)n3)n2)n1
6. Cc1cccc(-c2nccc(Nc3ccnc(Nc4ccc(N5CCN(C(=O)CSC(CCO)C(=O)O)CC5)cc4)n3)n2)n1 (stereo not drawn)
7. Cc1cccc(-c2nccc(Nc3ccnc(Nc4ccc(CN5CCN[C@@H](C(=O)O)C5)cc4)n3)n2)n1

Marked response:
0.398 to 3.16 nM
0.0398 to 0.316 nM
0.0398 to 0.316 nM
0.0398 to 0.316 nM
≤ 0.0316 nM
0.0398 to 0.316 nM
0.0398 to 0.316 nM

I would be grateful if you could provide Ki for each of the following entries.
1. Cc1cccc(-c2nccc(Nc3ccnc(Nc4ccc(C(=O)O[C@@H]5CCN(C)C5)cc4)n3)n2)n1
2. Cc1cccc(-c2nccc(Nc3ccnc(Nc4ccc(NS(=O)(=O)c5ccc(C(N)=O)cc5)cc4)n3)n2)n1
3. Cc1cccc(-c2nccc(Nc3ccnc(Nc4ccc(CN5CCC[C@H](C(=O)O)C5)cc4)n3)n2)n1
4. Cc1cccc(-c2nccc(Nc3ccnc(Nc4ccc(C5=CCNC5)cc4)n3)n2)n1

Marked response:
1: 0.0398 to 0.316 nM; 2: 0.398 to 3.16 nM; 3: 0.0398 to 0.316 nM; 4: ≤ 0.0316 nM
